assay: Cmax in Sprague-Dawley rat at 10 mg/kg, iv measured for 12 hrs by LC-MS/MS analysis
Assay type: ADME, organism-based
Set-up: dose 10 mg/kg, time 12 hrs, route iv
protocol-conditions: in vivo
property-measured: Cmax (ng/mL)
Report as a plain number; the unit ng/mL is understood.

**Q:** Determine its reported Cmax: C=C[C@]1(C)C[C@@H](O)[C@]2(C)[C@H](C)CC[C@]3(C/C(=C\c4ccc(C(=O)NC5CCCCC5)cc4)C(=O)[C@H]32)[C@@H](C)[C@@H]1O
**A:** 2270

====

assay: Half life in Sprague-Dawley rat at 10 mg/kg, iv measured for 12 hrs by LC-MS/MS analysis
Format: ADME, organism-based
protocol-conditions: in vivo
property-measured: half-life (min)
Report as a plain number; the unit min is understood.

**Q:** Determine its reported half-life: C=C[C@]1(C)C[C@@H](O)[C@]2(C)[C@H](C)CC[C@]3(C/C(=C\c4ccc(C(=O)NC5CCCCC5)cc4)C(=O)[C@H]32)[C@@H](C)[C@@H]1O
**A:** 29.3
